Would you kindly list z-score for each of these compounds?
biological target: NADPH oxidase 4 (Homo sapiens); assay: NOX4-dependent H2O2 signal modulators, primary screen, NOX inhibitor project, cell-based, HEK293-NOX4, tetracycline-induced, Amplex Red fluorescence (AID 1160); settings: 45 min, higher = more signal, called active from +8 up or from −8 down
Answers are plain numbers.

CO[C@@H]1COC(=O)CC=C[C@@H](C)[C@H](OC)COC(=O)[C@@H](C)COC(=O)CC=C[C@H]1C ... 0.195
CCOC(=O)[C@H](CC(C)C)NC(=O)CCC1CC(OC(=O)NCc2ccc3c(c2)OCO3)CC2(CCCC(COC(=O)NCc3cccc(C(F)(F)F)c3)O2)O1 (stereo not given in full) ... 0.179
CCCNC(=O)OC[C@H]1O[C@H](CCON=C(C)CCN2CCc3nc(CC)c(CC)cc3C2)C=C[C@@H]1Oc1ccc(OC)cc1 ... -1.7
CCOC(=O)[C@H](Cc1ccccc1)NC(=O)CCC1CC(OC(=O)NCc2cccc3ccccc23)CC2(CCCC(COC(=O)NCc3ccccc3)O2)O1 (stereo not given in full) ... -1.2
CCN1C(=O)[C@@H]2[C@H]3C(=CC[C@@H]2C1=O)C1(OCCCO1)[C@H]1O[C@H]1[C@H]3O ... -5.5

Please report z-score for every entry that follows.
1. CO[C@H]1COC(=O)[C@@H]2CCCN2C(=O)CC=C[C@@H](C)[C@H](OC)COC(=O)[C@@H](OCc2ccccc2)C=C[C@@H]1C
2. CON=C[C@@H](C)[C@H](OCc1ccccc1)C(C)C
3. COC(=O)CC=C[C@@H](C)[C@@H](C=NO[C@@H](C)c1cc(-c2c(C)cc(C)cc2C)no1)NS(=O)(=O)c1ccc(C)cc1
4. O=C1CCCC=C1C(O)CCCCBr (stereo not given)
5. COC(=O)CC=C[C@@H](C)[C@@H](C=NO[C@H](C)c1cn([C@H](CO)Cc2ccccc2)nn1)OC
6. COc1cccc([C@@H]2Oc3ccc(OC)cc3C(=O)[C@H]2O)c1

[0.275, -1.21, -0.115, 0.241, 0.541, -1.51]

###

molecular target: NADPH oxidase 4 (Homo sapiens); assay: NOX4-dependent H2O2 signal modulators, primary screen, NOX inhibitor project, cell-based, HEK293-NOX4, tetracycline-induced, Amplex Red fluorescence (AID 1160); conditions: 45 min, higher = more signal, called active from +8 up or from −8 down
Rule: z-score under 0.2 gives 0 (no), otherwise 1 (yes).

Illustrative cases are given below, each with its answer.
O=C1C[C@@H](O)[C@@H](O)[C@@H]2[C@@H]3C(=O)N(c4cccc(Oc5ccccc5)c4)C(=O)[C@@H]3CC[C@H]12 ... 1 (yes)
COC(=O)CC=C[C@@H](C)[C@@H](C=NO[C@@H](C)c1cn([C@H](CO)Cc2ccccc2)nn1)OC ... 0 (no)
CCOC(=O)C1=NO[C@]2(C=C(Br)C3(OCCCO3)[C@H]3O[C@H]32)C1 ... 1 (yes)
CCOC(=O)[C@H](Cc1ccccc1)NC(=O)CCC1CC(OC(=O)NCc2ccc3c(c2)OCO3)CC2(CCCC(COC(=O)NCCC(C)C)O2)O1 (stereo not given in full) ... 1 (yes)
Cc1ccc(S(=O)(=O)N[C@H]2COC(=O)CC=C[C@@H](C)COC(=O)CC=C[C@@H]2C)cc1 ... 1 (yes)

Given COC(=O)[C@@H]1CC[C@H](C)[C@@H](c2ccc(C)cc2)N1C(=O)c1ccc(C=NO[C@@H]2O[C@H](COC(C)=O)[C@@H](OC(C)=O)[C@H](OC(C)=O)[C@H]2OC(C)=O)cc1 , state whether its z-score is at least 0.2.
0 (no)

Given CC(=O)OC[C@H]1O[C@H](C#Cc2ccccc2)C=C[C@@H]1OC(C)=O , state whether its z-score is at least 0.2.
1 (yes)

Given CCOC(=O)NN=C1C[C@@H](O)[C@@H](O)[C@@H]2[C@@H]3C(=O)N(c4cccc(Oc5ccccc5)c4)C(=O)[C@@H]3CC[C@H]12 , state whether its z-score is at least 0.2.
1 (yes)

Given CC(C)=NOC[C@@H](C)[C@H](OCc1ccccc1)C(C)C , state whether its z-score is at least 0.2.
0 (no)

Given CCOC(=O)[C@H](CC(C)C)NC(=O)CCC1CC(OC(=O)NCc2cccc3ccccc23)CC2(CCCC(COC(=O)NCCCN3CCCC3=O)O2)O1 (stereo not given in full) , state whether its z-score is at least 0.2.
0 (no)
